Euclidean distance values for the molecules below.
# Test system: OVCAR4
# experimentSummary: Euclidean distance of Cell Painting phenotypic profile (signed KS, 77 features) to DMSO centroid (dimensionless distance); 5 or 10 uM (library dependent); higher = stronger phenotypic change vs DMSO (phenoactivity)
# reportedConditions: 48 h
Where a name gives a salt, the structure may show the parent alone.
Give the figure by itself; no unit, no explanation.

# annotated cases, reported Euclidean distance shown
molecule	value
CCCc1nn(C)c2c(=O)[nH]c(-c3cc(S(=O)(=O)N4CCN(C)CC4)ccc3OCC)nc12	1.17
N#Cc1cc(-c2n[nH]c(-c3ccncc3)n2)ccn1	1.32
CCC[C@@H]1C[C@@H](C(=O)N[C@@H]([C@H]2O[C@H](SC)[C@H](O)[C@@H](O)[C@H]2O)[C@H](C)Cl)N(C)C1 [Clindamycin]	0.602

Now take the following molecule into account.
Query COc1cc(OC)c(C(=O)CCCN2CCCC2)c(OC)c1 [Buflomedil HCl] yields Euclidean distance of 1.18
